- TESTED ON: Luciferin 4-monooxygenase (Photinus pyralis) (UniProt P08659)
- Sequence (P08659 whole entry, looked up): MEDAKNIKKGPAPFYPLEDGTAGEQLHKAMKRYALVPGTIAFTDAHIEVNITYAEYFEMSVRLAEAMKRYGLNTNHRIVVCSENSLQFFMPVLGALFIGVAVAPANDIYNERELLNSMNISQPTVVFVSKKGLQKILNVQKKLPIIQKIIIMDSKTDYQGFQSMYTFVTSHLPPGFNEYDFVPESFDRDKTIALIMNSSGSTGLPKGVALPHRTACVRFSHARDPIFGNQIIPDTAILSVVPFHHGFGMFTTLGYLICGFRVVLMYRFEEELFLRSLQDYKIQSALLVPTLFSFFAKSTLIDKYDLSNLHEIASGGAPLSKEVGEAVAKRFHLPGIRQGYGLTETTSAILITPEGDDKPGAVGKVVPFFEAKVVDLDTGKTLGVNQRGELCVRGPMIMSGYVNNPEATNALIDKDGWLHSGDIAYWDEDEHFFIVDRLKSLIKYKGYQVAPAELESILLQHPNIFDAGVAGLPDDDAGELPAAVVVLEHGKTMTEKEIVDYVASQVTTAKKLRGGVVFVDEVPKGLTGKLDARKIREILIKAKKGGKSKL
- ASSAY: qHTS Assay for Inhibitors of Firefly Luciferase; further: nearly all actives have a fitted effect of over 40% in size
- SETUP CONDITIONS: purified firefly luciferase, luminescence, 8 min; series mostly up to 57.1 µM
About 1,600 (2.2%) of roughly 72,000 compounds were called active. The call rests on the fitted dose curve; in most records, active means well fitted inhibition curve with a large enough effect; inconclusive means small, poorly fitted or top-dose-only effect; inactive means flat fitted curve, though single readings scatter. This excerpt belongs to a sample that is enriched for actives.
Labels: active, inactive

# ITEM SMILES, TESTED ON, ASSIGNED CATEGORY
data = [
    ("COc1cccc(OC)c1C(=O)Nc1nnc(C(C)C)s1", "Luciferin 4-monooxygenase (Photinus pyralis) (UniProt P08659)", "inactive"),
    ("O=C(Oc1ccc(-c2nc(-c3ccccn3)no2)cc1)c1ccccc1", "Luciferin 4-monooxygenase (Photinus pyralis) (UniProt P08659)", "active"),
    ("COc1cccc2sc(Nc3nc(C)c(C(C)=O)s3)nc12", "Luciferin 4-monooxygenase (Photinus pyralis) (UniProt P08659)", "active"),
    ("COc1ccc(-c2cn3ccsc3n2)cc1", "Luciferin 4-monooxygenase (Photinus pyralis) (UniProt P08659)", "active"),
    ("c1ccc(-c2[nH]ncc2-c2nc3ccccc3[nH]2)cc1", "Luciferin 4-monooxygenase (Photinus pyralis) (UniProt P08659)", "inactive"),
    ("Cc1ccc(S(=O)(=O)NCc2cn3ccsc3n2)c(C)c1", "Luciferin 4-monooxygenase (Photinus pyralis) (UniProt P08659)", "inactive"),
    ("CC(C)c1nc(-c2ccccn2)no1", "Luciferin 4-monooxygenase (Photinus pyralis) (UniProt P08659)", "inactive"),
    ("Cc1cccc(NC(=O)COc2ccccc2C)n1", "Luciferin 4-monooxygenase (Photinus pyralis) (UniProt P08659)", "inactive"),
    ("N#CCCN(CCC#N)c1nnc(-c2ccccc2)s1", "Luciferin 4-monooxygenase (Photinus pyralis) (UniProt P08659)", "inactive"),
]

* * *

- TESTED ON: Luciferin 4-monooxygenase (Photinus pyralis) (UniProt P08659)
- ASSAY: qHTS Assay for Inhibitors of Firefly Luciferase; further: nearly all actives have a fitted effect of over 40% in size
- SETUP CONDITIONS: purified firefly luciferase, luminescence, 8 min; series mostly up to 57.1 µM
The campaign covered roughly 72,000 compounds. About 1,600 (2.2%) were called active. The full list was thinned out, with actives kept by preference.

# ITEM SMILES, outcome
measured = [
    ("Cc1ccc(C(=O)COc2cccc(NC(=O)c3ccco3)c2)cc1", "inactive"),
    ("COc1ccc(OC)c(C(=O)CSc2nnc(-c3cccs3)o2)c1", "inactive"),
    ("COc1ccc(NC(=O)c2cccc(NC(=O)c3ccco3)c2)c(OC)c1", "inactive"),
]

* * *

- TESTED ON: Luciferin 4-monooxygenase (Photinus pyralis)
- ASSAY: qHTS Assay for Inhibitors of Firefly Luciferase; further: nearly all actives have a fitted effect of over 40% in size
- SETUP CONDITIONS: purified firefly luciferase, luminescence, 8 min; series mostly up to 57.1 µM
The campaign covered roughly 72,000 compounds. About 1,600 (2.2%) were called active. The call rests on the fitted dose curve; in most records, active means well fitted inhibition curve with a large enough effect; inconclusive means small, poorly fitted or top-dose-only effect; inactive means flat fitted curve, though single readings scatter. For the sample, actives were picked, then their nearest neighbours and some compounds at random.
Outcome codes: active, inactive

# MOLECULE, ASSIGNED CATEGORY
rows = [
    ("O=C(OC1CCOC1=O)c1ccc(-c2nc3ccccc3s2)s1 (stereo not given)", "active"),
    ("Clc1ccc(Nc2nc(-c3cccs3)cs2)nc1", "inactive"),
    ("Cc1nn(Cc2ccccc2)c(Cl)c1C(=O)OC1CCOC1=O (stereo not given)", "inactive"),
    ("Oc1ccc(-c2csc(Nc3cccnc3)n2)cc1", "inactive"),
    ("COc1ccccc1N1CCN(C(=O)c2cc(-c3ccc(Br)cc3)on2)CC1", "inactive"),
]

* * *

- TESTED ON: Luciferin 4-monooxygenase (Photinus pyralis) (UniProt P08659)
- ASSAY: qHTS Assay for Inhibitors of Firefly Luciferase; further: nearly all actives have a fitted effect of over 40% in size
- SETUP CONDITIONS: purified firefly luciferase, luminescence, 8 min; series mostly up to 57.1 µM
Among all 72,000 compounds or so, about 1,600 (2.2%) were called active. Calls come from the whole dose curve; as a rule, active = well fitted inhibition curve with a large enough effect; inconclusive = small, poorly fitted or top-dose-only effect; inactive = flat fitted curve, though single readings scatter. The entries come from a sample that favours actives as a whole.
Outcome codes: active, inactive

# COMPOUND, ASSIGNED CATEGORY
measured = [
    ("CCOC(=O)c1cc2cc(-c3c(C(=O)OCC)oc4cc(O)cc(O)c4c3=O)ccc2o1", "inactive"),
    ("Cn1c(=NC(=O)CSCC(=O)N2CCCCC2)sc2ccccc21", "inactive"),
    ("O=C(NCc1ccccn1)c1cc2ccccc2oc1=O", "inactive"),
    ("Nc1nc(SCCOc2ccccc2)n[nH]1", "inactive"),
    ("CCCCN(CCCC)CCC(O)c1cc2c(Cl)cc(Cl)cc2c2cc(C(F)(F)F)ccc12 (stereo not given)", "inactive"),
    ("Cc1nc2ccccc2c(=O)n1CCCn1ccnc1", "inactive"),
    ("CC1CCC(NC(=O)c2ccc(N3CCCC3=O)cc2)CC1 (stereo not given)", "inactive"),
    ("O=C(OCCO)c1cc(Cl)c(C(=O)OCCO)cc1Cl", "inactive"),
    ("CCCn1c(=O)c2ccccc2n2c(SCC(=O)/C(C#N)=C(\\C)N)nnc12", "inactive"),
    ("CCOC(=O)CCc1c(C)c(C#N)c2[nH]c3ccccc3n2c1=O", "inactive"),
    ("Cc1nn(-c2ccccc2)c2sc(C(=O)N(Cc3ccco3)C(C)C(=O)NC(C)(C)C)cc12 (stereo not given)", "inactive"),
    ("Cc1ccnc(-n2sc3ccccc3c2=O)n1", "active"),
    ("Cc1cc(Cl)c(S(=O)(=O)Nc2ccc3c(c2)OCCO3)cc1OCC(N)=O", "inactive"),
    ("O=C(Oc1cccnc1)c1cc2ccccc2oc1=O", "inactive"),
    ("O=C(Nc1ccncc1)c1cc2ccccc2o1", "active"),
    ("O=S(=O)(c1ccc(Sc2nnc3ccccn23)nc1)N1CCOCC1", "inactive"),
    ("CCCCOc1ccc(-c2ncc(C(=O)OCC)c(N)n2)cc1", "inactive"),
    ("COc1c(Br)cc2c(C)c(C(=O)N3CCOCC3)oc2c1Br", "inactive"),
    ("COC(=O)c1ccc(NC(=O)C(C)N2C(=O)c3ccccc3C2=O)cc1 (stereo not given)", "inactive"),
    ("COc1ccc(OCC(=O)N2CCN(C(=O)COc3ccccc3)CC2)cc1", "inactive"),
]

* * *

- TESTED ON: Luciferin 4-monooxygenase (Photinus pyralis) (UniProt P08659)
- ASSAY: qHTS Assay for Inhibitors of Firefly Luciferase; further: nearly all actives have a fitted effect of over 40% in size
- SETUP CONDITIONS: purified firefly luciferase, luminescence, 8 min; series mostly up to 57.1 µM
The whole screen tested about 72,000 compounds, of which about 1,600 (2.2%) were called active. Calls follow the shape of the dose curve; as a rule, active = well fitted inhibition curve with a large enough effect; inconclusive = small, poorly fitted or top-dose-only effect; inactive = flat fitted curve, though single readings scatter. The full list was thinned out, with actives kept by preference.
Outcome codes: yes (1) for active, no (0) for inactive

# ITEM SMILES, ASSIGNED CATEGORY
records = [
    ("O=S(=O)(NCCNS(=O)(=O)c1ccccc1)c1ccccc1", "no (0)"),
    ("CC(=O)c1c(C)n(-c2ccc(N(C)C)cc2)c2ccc(OCC(N)=O)cc12", "no (0)"),
    ("O=C(NCc1cccnc1)c1cn(-c2ccccc2)nc1-c1cccs1", "yes (1)"),
    ("Cc1cc(C(=O)COC(=O)CCCN2C(=O)c3ccccc3C2=O)c(C)n1C", "no (0)"),
    ("COCCCNC(=O)CSc1nc2ccc(N3CCOCC3)cc2c(=O)n1CCc1ccccc1", "no (0)"),
    ("C=CCn1c(C)cc(C(=O)CN2C(=O)c3ccccc3C2=O)c1C", "yes (1)"),
    ("CCOC(=O)CSc1nnc(-c2cccc(Br)c2)o1", "no (0)"),
    ("Cc1nn2c3cc(N4CCOCC4)ccc3nc2c2ccccc12", "yes (1)"),
    ("O=C(c1cn(-c2ccccc2)nc1-c1cccnc1)N1CCCCC1", "no (0)"),
]

* * *

- TESTED ON: Luciferin 4-monooxygenase (Photinus pyralis)
- ASSAY: qHTS Assay for Inhibitors of Firefly Luciferase; further: nearly all actives have a fitted effect of over 40% in size; on activity change, negative = inhibition: on the % scale 0 is the no-effect control and ±100 the full control effect
- SETUP CONDITIONS: purified firefly luciferase, luminescence, 8 min; series mostly up to 57.1 µM
Among all 72,000 compounds or so, about 1,600 (2.2%) were called active. What follows is part of a selection rich in actives, with near analogues and random picks from the rest.

# COMPOUND, TESTED ON, activity change, negative = inhibition
records = [
    ("Cc1c(O)c(Br)c(C)c(O)c1Br (tested in a mixture with another compound)", "Luciferin 4-monooxygenase (Photinus pyralis)", "-10.4% [at 11.4 µM] (inactive)"),
    ("COc1ccc(Br)c2c1C[C@H](C(=O)O)CC2", "Luciferin 4-monooxygenase (Photinus pyralis)", "3.64% [at 11.4 µM] (inactive)"),
    ("CC(C)=CCC/C(C)=C/CO/N=C1/C[C@@H](O)[C@@H](O)[C@@H]2[C@@H]3C(=O)N(C(C)(C)C)C(=O)[C@H]3CC[C@H]12", "Luciferin 4-monooxygenase (Photinus pyralis)", "0.109% [at 11.4 µM] (inactive)"),
    ("COc1ccc(C(=O)N2CCC[C@@]3(CCN(C(=O)NC(C)C)C3)C2)cc1", "Luciferin 4-monooxygenase (Photinus pyralis)", "-0.0908% [at 11.4 µM] (inactive)"),
    ("O=C(O)CS(=O)c1ccc2c3c(cccc13)C(=O)c1ccccc1-2 (stereo not given)", "Luciferin 4-monooxygenase (Photinus pyralis)", "-1.48% [at 11.4 µM] (inactive)"),
    ("O=C(c1ccc([N+](=O)[O-])cc1)[C@@H](Br)[C@@H](Br)c1ccnc2ccccc12", "Luciferin 4-monooxygenase (Photinus pyralis)", "-0.655% [at 11.4 µM] (inactive)"),
    ("O=C(c1ccco1)N1CCC2(CC1)CN(c1ncccn1)C2", "Luciferin 4-monooxygenase (Photinus pyralis)", "-0.795% [at 11.4 µM] (inactive)"),
    ("COCCNc1ncnc2ccc(-c3cccnc3)cc12", "Luciferin 4-monooxygenase (Photinus pyralis)", "-1.48% [at 2.29 µM] (inactive)"),
    ("O=C(c1csnn1)N1CCC[C@@]2(CCN(c3cccc(-c4ccccc4)c3)C2)C1", "Luciferin 4-monooxygenase (Photinus pyralis)", "0.28% [at 11.4 µM] (inactive)"),
    ("ClC(Cl)(Cl)C(N1CCN(c2ccccc2)CC1)N1CCN(c2ccccc2)CC1", "Luciferin 4-monooxygenase (Photinus pyralis)", "2.2% [at 11.4 µM] (inactive)"),
]

// provenance: PubChem BioAssay AID411
